Can you tell me relative cell count for the items I'm about to list?
system: U-2 OS; assay: relative cell count vs DMSO (cell painting) (fraction of DMSO control); higher = more cells remaining (less cytotoxic); details: 1.25 µM; 24 h
Numbers only.

Here's what some known entries look like.
CC(C)C[C@@H](C=O)NC(=O)[C@H](CC(C)C)NC(=O)[C@H](CC(C)C)NC(=O)OCc1ccccc1 = 0.824
CC1=C(CO)C(=O)O[C@H](C(C)[C@H]2CC[C@@H]3[C@H]4C[C@H]5O[C@@]56[C@@H](O)C=CC(=O)[C@@]6(C)C4CC[C@@]23C)C1 (some centres undefined) = 0.352
O=[N+]([O-])c1c(Sc2ncnc3nc[nH]c23)cc(Cl)c2nsnc12 = 0.936

Proceed to the following item.
Req: Item O=[N+]([O-])c1c(Cl)cc(Cl)c2nsnc12 has what recorded relative cell count?
Resp: 0.626
